Data origin, for the record: paper PMC12299463

# System: MCF-10A non-tumor mammary epithelial cell line
# run-description: in vitro
# Assay type: cell-based, human
measured-parameter: IC50

Some entries whose results are on file:
C=C(C)CC[C@@H](OC(C)=O)[C@]1(C)OC(=O)C23CC=C4[C@@H](CC[C@H]5C(C)(C)[C@@H](O[C@@H]6OC[C@@H](O[C@@H]7O[C@H](CO)[C@@H](O)[C@H](O[C@@H]8O[C@H](CO)[C@@H](O)[C@H](OC)[C@H]8O)[C@H]7O)[C@H](O)[C@H]6O[C@@H]6O[C@H](C)[C@@H](O[C@@H]7OC[C@@H](O)[C@H](O[C@@H]8O[C@H](CO)[C@@H](O)[C@H](OS(=O)(=O)O)[C@H]8O)[C@H]7O)[C@H](O)[C@H]6O)CC[C@]45C)[C@]2(C)C[C@H](OC(C)=O)[C@@H]31 (stereo partly drawn) [Cladoloside T (3)] | 8.23 µM
CO[C@@H]1[C@@H](O)[C@H](O[C@@H]2[C@@H](O)[C@H](O[C@H]3[C@H](O)[C@@H](O)[C@H](O[C@H]4[C@H](O[C@H]5CC[C@]6(C)C7=CCC89C(=O)O[C@@](C)([C@@H](CCC(C)C)OC(C)=O)[C@H]8[C@@H](OC(C)=O)C[C@@]9(C)[C@@H]7CC[C@H]6C5(C)C)OC[C@@H](O)[C@@H]4O)O[C@@H]3C)OC[C@H]2O)O[C@H](CO)[C@H]1O (stereo partly drawn) [A1 (5)] | > 20 µM

// moving on: another record for IC50
Ask: Report IC50 for C=C(C)CC[C@@H](OC(C)=O)[C@]1(C)OC(=O)C23CC=C4[C@@H](CC[C@H]5C(C)(C)[C@@H](O[C@@H]6OC[C@@H](O[C@@H]7O[C@H](CO)[C@@H](O)[C@H](O[C@@H]8O[C@H](CO)[C@@H](O)[C@H](OC)[C@H]8O)[C@H]7O)[C@H](O)[C@H]6O[C@@H]6O[C@H](C)[C@@H](O[C@@H]7OC[C@@H](O)[C@H](O[C@@H]8O[C@H](CO)[C@@H](O)[C@H](OC)[C@H]8O)[C@H]7O)[C@H](O)[C@H]6O)CC[C@]45C)[C@]2(C)C[C@H](O)[C@@H]31 (stereo partly drawn) [C3 (16), cladoloside C3] tested on MCF-10A non-tumor mammary epithelial cell line.
Reply: > 20 µM

###

# Tested on: MCF-7 human breast cancer cells
# run-description: cells
# Format: cell-based
# test-parameters: MTT assay, MCF-7; read-out: Cytotoxicity, IC50, MCF-7
measured-parameter: IC50 (µM)
Numbers only, in µM.

Ask: Could you share which IC50 value was measured for C=C(C)CCC[C@]1(C)OC(=O)C23CC=C4[C@@H](CC[C@H]5C(C)(C)[C@@H](O[C@@H]6OC[C@@H](O[C@@H]7O[C@H](CO)[C@@H](O)[C@H](O[C@@H]8O[C@H](COS(=O)(=O)[O-])[C@@H](O)[C@H](OC)[C@H]8O)[C@H]7O)[C@H](O)[C@H]6O[C@@H]6O[C@H](C)[C@@H](O[C@@H]7OC[C@@H](O)[C@H](O[C@@H]8O[C@H](CO)[C@@H](O)[C@H](OC)[C@H]8O)[C@H]7O)[C@H](O)[C@H]6O)CC[C@]45C)[C@]2(C)CC(=O)[C@@H]31.[Na+] (stereo partly shown) [Cladoloside L1 (33), Cladoloside L1] ?
Reply: 12.7

###

# System: MCF-7 human breast cancer cells;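 also: IC50 values, including those behind the selectivity ratio, derive from formazan absorbance at 570 nm, tested in triplicate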
# run-description: cells
# Format: cell-based
Provide the reported IC50 of each item.
One number for each entry, in µM.

C=C(C)CC[C@@H](OC(C)=O)[C@]1(C)OC(=O)C23CC=C4[C@@H](CC[C@H]5C(C)(C)[C@@H](O[C@@H]6OC[C@@H](O[C@@H]7O[C@H](CO)[C@@H](O)[C@H](O[C@@H]8O[C@H](CO)[C@@H](O)[C@H](OC)[C@H]8O)[C@H]7O)[C@H](O)[C@H]6O[C@@H]6O[C@H](C)[C@@H](O[C@@H]7OC[C@@H](O)[C@H](O[C@@H]8O[C@H](CO)[C@@H](O)[C@H](OS(=O)(=O)O)[C@H]8O)[C@H]7O)[C@H](O)[C@H]6O)CC[C@]45C)[C@]2(C)C[C@H](OC(C)=O)[C@@H]31 (some centres unmarked) [Cladoloside T (3)] | 8.99

Next, consider the following compound.
Ask: Reported IC50, compound CO[C@@H]1[C@@H](O)[C@H](O[C@@H]2[C@@H](O)[C@H](O[C@@H]3CO[C@@H](O[C@H]4CC[C@]5(C)C6=CCC78C(=O)O[C@@](C)([C@@H](CCC(C)C)OC(C)=O)[C@H]7[C@@H](OC(C)=O)C[C@@]8(C)[C@@H]6CC[C@H]5C4(C)C)[C@H](O[C@@H]4O[C@H](C)[C@@H](O[C@@H]5OC[C@@H](O)[C@H](O[C@@H]6O[C@H](CO)[C@@H](O)[C@H](OS(=O)(=O)O)[C@H]6O)[C@H]5O)[C@H](O)[C@H]4O)[C@H]3O)O[C@H](CO)[C@H]2O)O[C@H](CO)[C@H]1O (some centres unmarked) [Cladoloside T1 (4)] : ____
Reply: 7.78

###

# Tested on: T-47D human breast cancer cells;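 also: cell viability read as absorbance of formazan dye at 570 nm, each experiment run in triplicate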
# run-description: cells
# Format: cell-based
# test-parameters: MTT assay, T-47D; read-out: Cytotoxicity, IC50, T-47D
measured-parameter: pIC50
One number for each entry, as −log10 of the molar value.

Ask: Query: pIC50; subject: C=C(C)CCC[C@]1(C)OC(=O)C23CC=C4[C@@H](CC[C@H]5C(C)(C)[C@@H](O[C@@H]6OC[C@@H](O[C@@H]7O[C@H](CO)[C@@H](O)[C@H](O[C@@H]8O[C@H](CO)[C@@H](O)[C@H](OC)[C@H]8O)[C@H]7O)[C@H](O)[C@H]6O[C@@H]6O[C@H](C)[C@@H](O[C@@H]7O[C@H](CO)[C@@H](O)[C@H](O[C@@H]8O[C@H](CO)[C@@H](O)[C@H](OC)[C@H]8O)[C@H]7O)[C@H](O)[C@H]6O)CC[C@]45C)[C@]2(C)CC(=O)[C@@H]31 (some centres unmarked) [Cladoloside M1 (35), cladoloside M1]
Reply: 4.77

###

# Tested on: MDA-MB-231 triple-negative breast cancer cells
# run-description: cells
# Assay type: cell-based, human
# test-parameters: MTT assay, MDA-MB-231; read-out: Cytotoxicity, IC50, MDA-MB-231
pIC50: −log10 of the molar value.
Response key: t means pIC50 >= 5; f means pIC50 < 5.

CO[C@@H]1[C@@H](O)[C@H](O[C@@H]2[C@@H](O)[C@H](O[C@@H]3CO[C@@H](O[C@H]4CC[C@]5(C)C6=CCC78C(=O)O[C@@](C)([C@@H](CCC(C)C)OC(C)=O)[C@H]7[C@@H](OC(C)=O)C[C@@]8(C)[C@@H]6CC[C@H]5C4(C)C)[C@H](O[C@@H]4O[C@H](C)[C@@H](O[C@@H]5OC[C@@H](O)[C@H](O[C@@H]6O[C@H](CO)[C@@H](O)[C@H](OC)[C@H]6O)[C@H]5O)[C@H](O)[C@H]4O)[C@H]3O)O[C@H](CO)[C@H]2O)O[C@H](CO)[C@H]1O (stereo partly shown) [Cladoloside C1 (14), cladoloside C1] | f

Ask: hey, is pIC50 for this one >= 5? C=C(C)CCC[C@]1(C)OC(=O)C23CC=C4[C@@H](CC[C@H]5C(C)(C)[C@@H](O[C@@H]6OC[C@@H](O[C@@H]7O[C@H](CO)[C@@H](O)[C@H](O[C@@H]8O[C@H](CO)[C@@H](O)[C@H](OC)[C@H]8O)[C@H]7O)[C@H](O)[C@H]6O[C@@H]6O[C@H](C)[C@@H](O[C@@H]7OC[C@@H](O)[C@H](O[C@@H]8O[C@H](CO)[C@@H](O)[C@H](O)[C@H]8O)[C@H]7O)[C@H](O)[C@H]6O)CC[C@]45C)[C@]2(C)CC(=O)[C@@H]31 (stereo partly shown) [Cladoloside P2 (41), Cladoloside P2]
Reply: t

Ask: Also C=C(C)CCC[C@]1(C)OC(=O)C23CC=C4[C@@H](CC[C@H]5C(C)(C)[C@@H](O[C@@H]6OC[C@@H](O)[C@H](O)[C@H]6O[C@@H]6O[C@H](C)[C@@H](O[C@@H]7OC[C@@H](O)[C@H](O[C@@H]8O[C@H](CO)[C@@H](O)[C@H](OC)[C@H]8O)[C@H]7O)[C@H](O)[C@H]6O)CC[C@]45C)[C@]2(C)C[C@H](OC(C)=O)[C@@H]31 (stereo partly shown) [A3 (7), cladoloside A3] , if possible.
Reply: f

Ask: Try this compound next: CO[C@@H]1[C@@H](O)[C@H](O[C@@H]2[C@@H](O)[C@H](O[C@@H]3CO[C@@H](O[C@H]4CC[C@]5(C)C6=CCC78C(=O)O[C@@](C)([C@@H](CCC(C)C)OC(C)=O)[C@H]7[C@@H](OC(C)=O)C[C@@]8(C)[C@@H]6CC[C@H]5C4(C)C)[C@H](O[C@@H]4O[C@H](C)[C@@H](O[C@@H]5OC[C@@H](O)[C@H](O[C@@H]6O[C@H](CO)[C@@H](O)[C@H](OC)[C@H]6O)[C@H]5O)[C@H](O)[C@H]4O)[C@H]3O)O[C@H](C)[C@H]2O)O[C@H](CO)[C@H]1O (stereo partly shown) [Cladoloside H1 (26), Cladoloside H1]
Reply: t

Ask: Field entry: C=C(C)CC[C@@H](OC(C)=O)[C@]1(C)OC(=O)C23CC=C4[C@@H](CC[C@H]5C(C)(C)[C@@H](O[C@@H]6OC[C@@H](O[C@@H]7OC[C@@H](O)[C@H](O[C@@H]8O[C@H](CO)[C@@H](O)[C@H](O)[C@H]8O)[C@H]7O)[C@H](O)[C@H]6O[C@@H]6O[C@H](C)[C@@H](O[C@@H]7OC[C@@H](O)[C@H](O[C@@H]8O[C@H](CO)[C@@H](O)[C@H](OC)[C@H]8O)[C@H]7O)[C@H](O)[C@H]6O)CC[C@]45C)[C@]2(C)C[C@H](OC(C)=O)[C@@H]31 (stereo partly shown) [Cladoloside D (18), Cladoloside D]
Reply: t
